- Tested on: P1534 leukemia ip, CD2F1 mice, survival T/C
- experimental-protocol: NCI In Vivo Anticancer Drug Screen. Data for tumor model P1534 Leukemia (intraperitoneal) in CD2F1 (CDF1) mice
- run-parameters: endpoint: mean survival time; dose: 40.0 mg/kg/injection; schedule: Q01DX010 (ip); vehicle: saline; higher = longer survival
Toxic doses and inconclusive results are not listed.
Kindly state T/C for each of the entries shown.

Quick note, T/C for CN1CCN(CCCN2c3ccccc3Sc3ccc(C(F)(F)F)cc32)CC1 landed at 115 % of control

For this compound ( OCCOCCN1CCN(CCCN2c3ccccc3Sc3ccc(C(F)(F)F)cc32)CC1 ), measured T/C is 119 % of control

Consider CC1CCOS(=O)O1 (stereo unspecified) . Its measured T/C is 100 % of control

The value of T/C measured for the compound COC(=O)C1=COC(C)C2CN3CCc4c([nH]c5ccccc45)C3CC12 (stereo unspecified) turned out to be 93 % of control

Entry COc1ccc(C(=O)C[C@H]2CCC[C@@H](CC(=O)c3ccc(OC)cc3)N2C)cc1 — recorded T/C = 100 % of control

So, C[C@@H]1C[C@@H]([C@H](O)CC2CC(=O)NC(=O)C2)C(=O)[C@@H](C)C1 ? Its T/C was 105 % of control

Quick note, T/C for COc1ccc(Cc2nccc3cc(OC)c(OC)cc23)cc1OC landed at 100 % of control

Quick note, T/C for COc1cc(C(=O)CC2CCCCN2)ccc1O (stereo unspecified) landed at 96 % of control

Quick note, T/C for CCN(CC)CCNc1ccc(C)c2sc3ccccc3c(=O)c12 landed at 103 % of control

T/C reported for this compound Cn1c(N)nc2nc[nH]c2c1=S : 96 % of control

get_value(item= CS(=O)(=O)OCC(O)C(O)COS(C)(=O)=O (stereo unspecified) , readout=T/C) returns 107 % of control

* * *

- Test system: P1534 leukemia ip, CD2F1 mice, survival T/C
- experimental-protocol: NCI In Vivo Anticancer Drug Screen. Data for tumor model P1534 Leukemia (intraperitoneal) in CD2F1 (CDF1) mice
- run-parameters: endpoint: mean survival time; dose: 10.0 mg/kg/injection; schedule: Q01DX010 (ip); vehicle: saline
Inconclusive results and toxic doses are left out. Rule for the calls: active = survival T/C of 150% or more; inactive = T/C below 125% in these data.
Write down the outcome that applies. Available outcomes: 1.0 = active, 0.0 = inactive

Status in this test for OCCOCCN1CCN(CCCN2c3ccccc3Sc3ccc(C(F)(F)F)cc32)CC1 ?
0.0

What is the recorded call for this compound in the test? Cn1c(N)nc2nc[nH]c2c1=S
0.0

So what was the verdict on COc1cc(C(=O)CC2CCCCN2)ccc1O (stereo unspecified) in this test?
0.0

What call does the record list for O=C(O)c1[nH]c(=O)[nH]c(=O)c1F ?
0.0

Fill in: this test's call for O=C(NCCCCC(NC(=O)OCc1ccccc1)C(=O)NCCCNCCCCNCCCNC(=O)C(CCCCNC(=O)OCc1ccccc1)NC(=O)OCc1ccccc1)OCc1ccccc1 (stereo unspecified) is ___
0.0

Hi, do you know how CCC1=CC2CN3CCc4c([nH]c5ccccc45)C(C(=O)OC)(C2)C13 (stereo unspecified) came out in this test?
0.0

GET /call?item= COC(=O)C1C(O)CCC2CN3CCc4c([nH]c5ccccc45)C3CC21 (stereo unspecified) returns the recorded outcome of this test.
0.0

I'd appreciate the recorded outcome for COc1ccc(C(=O)C[C@H]2CCC[C@@H](CC(=O)c3ccc(OC)cc3)N2C)cc1 from this test.
0.0

Write down the call the test reported for this compound. Item: Nc1nc(=S)c2[nH]cnc2[nH]1
0.0

Please indicate how the test categorized COc1ccc(Cc2nccc3cc(OC)c(OC)cc23)cc1OC .
0.0

Recorded test call requested for C=C(C(=O)OC1CC2CCC(C1)N2C)c1ccccc1 (stereo unspecified)
0.0

Short answer needed: outcome of this test for NC(N)=NCCCC(N)C(=O)NCCCCCCNCCCCCCNC(=O)C(N)CCCN=C(N)N (stereo unspecified) ?
0.0

In this assay, the call recorded for CC[n+]1c(-c2ccccc2)c2cc(N)ccc2c2ccc(N)cc21 was what?
1.0

For this compound, state the assay outcome: CC1CCOS(=O)O1 (stereo unspecified)
0.0

Answer briefly: the call reported for O=C(NCCCC(NC(=O)OCc1ccccc1)C(=O)NCCCNCCCCNCCCNC(=O)C(CCCNC(=O)OCc1ccccc1)NC(=O)OCc1ccccc1)OCc1ccccc1 (stereo unspecified) in this assay.
0.0

Test call, this compound: COc1ccc2c(c1O)-c1c(OC)c(OC)cc3c1[C@H](C2)[N+](C)(C)CC3
0.0

* * *

Kindly state T/C for each of the entries shown.
- Tested on: P1534 leukemia ip, CD2F1 mice, survival T/C
- experimental-protocol: NCI In Vivo Anticancer Drug Screen. Data for tumor model P1534 Leukemia (intraperitoneal) in CD2F1 (CDF1) mice
- run-parameters: endpoint: mean survival time; dose: 100.0 mg/kg/injection; schedule: Q01DX010 (sc); vehicle: steriod suspending solution; higher = longer survival
Inconclusive results and toxic doses are left out.

I looked up C[C@]12C=CC(=O)C=C1CC[C@@H]1[C@@H]2CC[C@]2(C)OC(=O)CC[C@@H]12 and its T/C for P1534 leukemia ip, CD2F1 mice, survival T/C was 100 % of control

Hey, P1534 leukemia ip, CD2F1 mice, survival T/C data for C[C@]12C[C@H](O)[C@H]3[C@@H](CCC4=CC(=O)CC[C@@]43C)[C@@H]1CC[C@@H]2C(=O)CO : T/C came out at 107 % of control

Recorded T/C for CC(=O)[C@@]1(O)CC[C@H]2[C@@H]3C[C@H](C)C4=CC(=O)C=C[C@]4(C)[C@@]3(F)[C@@H](O)C[C@@]21C on P1534 leukemia ip, CD2F1 mice, survival T/C was 100 % of control

Readout T/C for C[C@]12CCC(=O)C[C@H]1CC[C@@H]1[C@@H]2CC[C@@]2(C)[C@H]1CC[C@]2(C)O , test system P1534 leukemia ip, CD2F1 mice, survival T/C, was 100 % of control

* * *

- Tested on: P1534 leukemia ip, CD2F1 mice, survival T/C
- experimental-protocol: NCI In Vivo Anticancer Drug Screen. Data for tumor model P1534 Leukemia (intraperitoneal) in CD2F1 (CDF1) mice
- run-parameters: endpoint: mean survival time; dose: 100.0 mg/kg/injection; schedule: Q01DX010 (ip); vehicle: water; higher = longer survival
Toxic doses and inconclusive results are not listed.
assay-readout: T/C

Entry NC1=NNC(=O)C1 — recorded T/C = 95 % of control

The reported T/C of the compound [N-]=[N+]=CC(=O)NCC(=O)NN was 103 % of control

Per the record, OCn1cccn1 has T/C of 124 % of control

In plain terms, Cc1[nH]ncc1Br has a documented T/C of 95 % of control

// CO[C@@H]1[C@@H](OC2OC(C)C(OC3CC(C)(O)C(OC(=O)CC(C)C)C(C)O3)C(N(C)C)C2O)[C@@H](CC=O)C[C@@H](C)C(=O)/C=C/C2O[C@H]2C[C@@H](C)OC(=O)C[C@H]1OC(C)=O (some centres not stated) : T/C value = 92 % of control

Kindly note the recorded T/C for NC(=O)c1cn[nH]c1N , which is 100 % of control

Summary for this compound, O=C(O)c1cc(C(=O)O)[nH]n1 : T/C is 103 % of control

* * *

- Tested on: P1534 leukemia ip, CD2F1 mice, survival T/C
- experimental-protocol: NCI In Vivo Anticancer Drug Screen. Data for tumor model P1534 Leukemia (intraperitoneal) in CD2F1 (CDF1) mice
- run-parameters: endpoint: mean survival time; dose: 8.0 mg/kg/injection; schedule: Q01DX010 (ip); vehicle: saline
Toxic doses and inconclusive results are not listed. Rule for the calls: active = survival T/C of 150% or more; inactive = T/C below 125% in these data.
Your response should consist of one outcome taken from true (active), false (inactive)

Call for entry CN(C)c1ccc(/C=C\c2ccnc3ccccc23)cc1 :
false

# lookup: test call for Nc1nc(F)nc2c1ncn2C1OC(CO)C(O)C1O (stereo not given)
false

Status in this test for CN1CC[C@]23c4c5ccc(O)c4O[C@H]2C(=O)CC[C@H]3[C@H]1C5 ?
false

Give the logged outcome of this assay for the following compound: CCCCOP(=S)(N1CC1)N1CC1
false

Dear colleague, could you share the recorded outcome for CCNc1nncs1 when you have a moment?
false

What was the test verdict on O=C(Nc1ccc(C2=NCCN2)cc1)c1cccc(C(=O)Nc2ccc(C3=NCCN3)cc2)c1 ?
false

Identify the outcome logged in this assay for the compound shown: O=C(Nc1ccc(C2=NCCN2)cc1)c1ccc(C(=O)Nc2ccc(C3=NCCN3)cc2)cc1
false

# outcome recorded in this test, key = c1ccc(CNc2ncnc3[nH]ncc23)cc1
false

Look up the recorded call for O=C(Nc1ccc(C2=NCCCN2)cc1)c1ccc(C(=O)Nc2ccc(C3=NCCCN3)cc2)cc1 in this test.
true

In this assay, the call recorded for C[C@H]1/C(=C/C(=O)OCCN(C)C)CC[C@H]2[C@H]1C(=O)C[C@H]1C(C)(C)[C@@H](O)CC[C@]21C was what?
false
